Tested on: NCI-H460
Assay: NCI tumour cell line growth inhibition, 48 h
Calls of active or inactive are those of the source. No stated cut-off is given here; in the data, active = GI50 up to about 1.1 µM and inactive = higher.
Can you answer with just one of these options? true (1) (active), false (0) (inactive)

CC(=O)NNc1nc(C)c(C(/C=C/c2ccc([N+](=O)[O-])cc2)=N/NC(N)=S)s1    false (0)
CC(C)(C)OC(=O)N1CCC(NC(=O)NC2CCN(C(=O)OC(C)(C)C)CC2)CC1    false (0)
C/C(O[Si](C(C)C)(C(C)C)C(C)C)=C(\C)C(=O)N(C)c1ccccc1Cl    false (0)

stdin: Hi, do you know how COC(=O)/C(=N\NC(=O)c1ccccc1O)C(C#N)c1ccccc1 (stereo unspecified) came out in this test?
stdout: false (0)

stdin: // return assay outcome for CC1(c2ccc(F)cc2)C(C#N)C(=O)NC(=O)C1C#N (stereo unspecified)
stdout: false (0)
